ASSAY_TARGET: UniProtKB P05067
EXPERIMENT: Inhibition of APP expressed in human MC65 cells assessed as inhibition of amyloid beta oligomer formation at 10 uM by Western blotting after removal of tetracycline
Active and inactive are the calls of the source. The calls are words filed in the database; no cut-off is given here.
Result category, one only: active, inactive

SMILES_DATA	LABEL
COc1cc(/C=C/C(=O)/C(Cc2cn(CCCCNC(=O)CCNC(=O)CO[C@H]3CC[C@@]4(C)C(=CC[C@H]5[C@@H]6CC[C@H]([C@H](C)CCCC(C)C)[C@@]6(C)CC[C@@H]54)C3)nn2)=C(O)/C=C/c2ccc(O)c(OC)c2)ccc1O	active

// query Given CCCCNC(=O)CCC(=O)NCCCCCCn1cc(COc2ccc(/C=C/C(O)=C/C(=O)/C=C/c3ccc(O)c(OC)c3)cc2OC)nn1 , state the outcome it received in this test.
// result inactive

// query Given COc1cc(/C=C/C(=O)/C=C(O)/C=C/c2ccc(OCc3cn(CCCCNC(=O)CO[C@H]4CC[C@@]5(C)C(=CC[C@H]6[C@@H]7CC[C@H]([C@H](C)CCCC(C)C)[C@@]7(C)CC[C@@H]65)C4)nn3)c(OC)c2)ccc1O , state the outcome it received in this test.
// result inactive

// query Given COc1cc(/C=C/C(=O)/C(Cc2cn(CCCCNC(=O)CO[C@H]3CC[C@@]4(C)C(=CC[C@H]5[C@@H]6CC[C@H]([C@H](C)CCCC(C)C)[C@@]6(C)CC[C@@H]54)C3)nn2)=C(O)/C=C/c2ccc(O)c(OC)c2)ccc1O , state the outcome it received in this test.
// result inactive

// query Given COc1cc(/C=C/C(=O)/C=C(O)/C=C/c2ccc(OCc3cn(CCCCNC(=O)CCNC(=O)CCNC(=O)CO[C@H]4CC[C@@]5(C)C(=CC[C@H]6[C@@H]7CC[C@H]([C@H](C)CCCC(C)C)[C@@]7(C)CC[C@@H]65)C4)nn3)c(OC)c2)ccc1O , state the outcome it received in this test.
// result active

---

ASSAY_TARGET: Amyloid-beta precursor protein (Homo sapiens) (UniProt P05067)
Sequence (P05067 whole entry): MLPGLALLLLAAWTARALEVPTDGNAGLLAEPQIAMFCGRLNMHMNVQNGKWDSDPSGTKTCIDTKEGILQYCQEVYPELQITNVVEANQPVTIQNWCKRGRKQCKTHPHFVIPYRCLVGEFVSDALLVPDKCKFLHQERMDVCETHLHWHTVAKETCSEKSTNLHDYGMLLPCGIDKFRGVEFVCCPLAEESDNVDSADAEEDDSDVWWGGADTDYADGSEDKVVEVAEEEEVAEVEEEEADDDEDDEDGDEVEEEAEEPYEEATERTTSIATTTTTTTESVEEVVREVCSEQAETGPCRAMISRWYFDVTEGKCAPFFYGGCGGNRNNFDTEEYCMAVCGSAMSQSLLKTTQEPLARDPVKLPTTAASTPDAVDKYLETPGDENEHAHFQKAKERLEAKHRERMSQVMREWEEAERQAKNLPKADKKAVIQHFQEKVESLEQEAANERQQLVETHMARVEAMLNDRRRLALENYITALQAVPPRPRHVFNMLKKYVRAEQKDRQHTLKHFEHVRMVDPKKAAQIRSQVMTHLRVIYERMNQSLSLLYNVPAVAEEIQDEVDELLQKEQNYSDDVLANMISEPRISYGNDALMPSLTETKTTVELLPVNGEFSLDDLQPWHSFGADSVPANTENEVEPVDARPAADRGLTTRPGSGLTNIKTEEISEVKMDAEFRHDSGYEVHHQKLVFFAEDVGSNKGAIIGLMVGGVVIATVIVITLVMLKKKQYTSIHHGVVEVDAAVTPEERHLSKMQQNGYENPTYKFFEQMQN
EXPERIMENT: Inhibition of APP expressed in human MC65 cells assessed as inhibition of amyloid beta oligomer formation at 10 uM by Western blotting after removal of tetracycline
The source made the active and inactive calls. No cut-off for these calls is given here.
Result category, one only: YES for active, NO for inactive

SMILES_DATA	ASSAY_TARGET	LABEL
COc1cc(/C=C/C(=O)/C=C(O)/C=C/c2ccc(OCc3cn(CCCCNC(=O)CCNC(=O)CO[C@H]4CC[C@@]5(C)C(=CC[C@H]6[C@@H]7CC[C@H]([C@H](C)CCCC(C)C)[C@@]7(C)CC[C@@H]65)C4)nn3)c(OC)c2)ccc1O	Amyloid-beta precursor protein (Homo sapiens) (UniProt P05067)	YES
COc1cc(/C=C/C(=O)/C=C(O)/C=C/c2ccc(OCc3cn(CCCCCCNC(=O)CCNC(=O)CO[C@H]4CC[C@@]5(C)C(=CC[C@H]6[C@@H]7CC[C@H]([C@H](C)CCCC(C)C)[C@@]7(C)CC[C@@H]65)C4)nn3)c(OC)c2)ccc1O	Amyloid-beta precursor protein (Homo sapiens) (UniProt P05067)	YES
COc1cc(/C=C/C(=O)/C=C(O)/C=C/c2ccc(OCc3cn(CCCCCCNC(=O)CO[C@H]4CC[C@@]5(C)C(=CC[C@H]6[C@@H]7CC[C@H]([C@H](C)CCCC(C)C)[C@@]7(C)CC[C@@H]65)C4)nn3)c(OC)c2)ccc1O	Amyloid-beta precursor protein (Homo sapiens) (UniProt P05067)	NO
COc1cc(/C=C/C(=O)CC(=O)/C=C/c2ccc(O)c(OC)c2)ccc1O	Amyloid-beta precursor protein (Homo sapiens) (UniProt P05067)	NO
COc1cc(/C=C/C(=O)/C(Cc2cn(CCCCCCNC(=O)CCNC(=O)CO[C@H]3CC[C@@]4(C)C(=CC[C@H]5[C@@H]6CC[C@H]([C@H](C)CCCC(C)C)[C@@]6(C)CC[C@@H]54)C3)nn2)=C(O)/C=C/c2ccc(O)c(OC)c2)ccc1O	Amyloid-beta precursor protein (Homo sapiens) (UniProt P05067)	YES
COc1cc(/C=C/C(=O)/C(Cc2cn(CCCCNC(=O)CCNC(=O)CCNC(=O)CO[C@H]3CC[C@@]4(C)C(=CC[C@H]5[C@@H]6CC[C@H]([C@H](C)CCCC(C)C)[C@@]6(C)CC[C@@H]54)C3)nn2)=C(O)/C=C/c2ccc(O)c(OC)c2)ccc1O	Amyloid-beta precursor protein (Homo sapiens) (UniProt P05067)	YES

// query Given CCCCNC(=O)CCC(=O)NCCCCCCn1cc(C/C(C(=O)/C=C/c2ccc(O)c(OC)c2)=C(O)\C=C\c2ccc(O)c(OC)c2)nn1 , state the outcome it received in this test.
// result NO

// query Given COc1cc(/C=C/C(=O)/C(Cc2cn(CCCCCCNC(=O)CO[C@H]3CC[C@@]4(C)C(=CC[C@H]5[C@@H]6CC[C@H]([C@H](C)CCCC(C)C)[C@@]6(C)CC[C@@H]54)C3)nn2)=C(O)/C=C/c2ccc(O)c(OC)c2)ccc1O , state the outcome it received in this test.
// result NO

// query Given COc1cc(/C=C/C(=O)/C(Cc2cn(CCCCCCNC(=O)CCNC(=O)CCNC(=O)CO[C@H]3CC[C@@]4(C)C(=CC[C@H]5[C@@H]6CC[C@H]([C@H](C)CCCC(C)C)[C@@]6(C)CC[C@@H]54)C3)nn2)=C(O)/C=C/c2ccc(O)c(OC)c2)ccc1O , state the outcome it received in this test.
// result YES

Hey, just so you know, these numbers are from ChEMBL document CHEMBL1250472.
